Data credit: PubChem BioAssay (NCI)

System: OVCAR-8 ovarian
# valid calls are label 1 (active), label 0 (inactive); nothing else

Worked set:
**Q:** Called result for Cc1c2c(nn1C(=O)c1nn(-c3ccc(Cl)cc3)cc1O)-c1ccccc1CC2
**A:** label 1

**Q:** Called result for Clc1cc(Cl)c(Cl)c(-c2nc(-c3cccnc3)cs2)c1
**A:** label 0

More entries:
**Q:** Called result for CN(C)CCCN(c1nc(C(Cl)(Cl)Cl)ns1)c1nc(C(Cl)(Cl)Cl)ns1
**A:** label 0

**Q:** Called result for CN[C@]12CC3(C=CC(=O)C=C3)O[C@@]1(Cc1ccc(OC)cc1)N(C)C(=O)N2
**A:** label 0

**Q:** Called result for COc1cc(C#N)cc(OC)c1OCCOCCOc1c(OC)cc(C#N)cc1OC
**A:** label 0

**Q:** Called result for C#CCN=C(N/N=C/c1ccc([N+](=O)[O-])o1)NS(=O)(=O)c1cc(C)c(Cl)cc1SCC(N)=O
**A:** label 0

* * *

Test system: SK-MEL-5 melanoma
Quantity Kind: GI50

Worked examples, 3 compounds total:
**Q:** Fetch value of GI50 on SK-MEL-5 melanoma for O=C1c2cc3c(cc2-c2c1c1ccc(Cl)cc1c(=O)n2C[C@H](O)[C@@H](O)[C@H](O)CO)OCO3 .
**A:** 0.0253 µM

**Q:** Fetch value of GI50 on SK-MEL-5 melanoma for COC(=O)C(C)NP(=O)(OCc1ccc(Cn2cnc3c(=O)[nH]c(N)nc32)cc1)Oc1ccccc1 (centres undefined) .
**A:** > 100 µM

**Q:** Fetch value of GI50 on SK-MEL-5 melanoma for C/C(CC(=O)NNc1ccc([N+](=O)[O-])cc1)=N\Nc1ccc([N+](=O)[O-])cc1 .
**A:** 2.13 µM

Let us move to another entry and its GI50.
**Q:** Fetch value of GI50 on SK-MEL-5 melanoma for CC(=O)O[C@H]1C(=O)O[C@@H]2C[C@H]3C(C)=CC(=O)[C@@H](O)[C@]3(C)[C@H]3[C@@]4(O)OC[C@]32[C@@H]1[C@@H](C)[C@H]4O .
**A:** < 0.01 µM

* * *

Tested on: A498 renal
Procedure Text: NCI tumour cell line growth inhibition, 48 h
*1 amine or outer side, *2 acyl side, *3 side chain or, on linkers, in order; H or OH if unused. Where a SMILES comes first, the peptide text is derived from it. Bridges are numbered along the chain shown (N, C = ends). Roman numbers before positions name the chains, in order. [ ]: non-standard residue; d: D form. Actinocin(9to1) = Cc1c2oc3c(C)ccc(C(=O)[*:1])c3nc-2c(C(=O)[*:2])c(N)c1=O; X48 = O=C1CC(C(=O)[*:2])N([*:1])C1; NMeV = CN[CH](C(=O)O)C(C)C; Sar = CNCC(=O)O
Quantity Kind: TGI

Please give TGI for each item listed below.
1. CC(C)CC(NC(=O)C(CC(C)C)NC(=O)C(Cc1cnc[nH]1)NC(=O)C(C)NC(=O)C(NC(=O)C(C)NC(=O)C(Cc1c[nH]c2ccccc12)NC(=O)C(CCC(=O)O)NC(=O)C(N)Cc1ccccc1)C(C)C)C(N)=O (stereo not given) (H-FEWAVAHLL-NH2; configuration not given here)
2. O=S1(=O)OC(c2ccc(O)cc2)(c2ccc(O)cc2)c2ccccc21
3. COc1ccc(-c2nn(-c3cccc(NC(=O)Nc4ccc(Cl)c(C(F)(F)F)c4)c3)cc2-c2ccncc2)cc1Cl

**A:**
1: > 100 µM; 2: > 100 µM; 3: 8.01 µM

Please give TGI for each item listed below.
1. COc1ccc(/C=C2\CN(Cc3cn(CCCNc4ccnc5cc(Cl)ccc45)nn3)C/C(=C\c3ccc(OC)c(OC)c3)C2=O)cc1OC
2. O=C(O)c1ccc(O)c(N=Nc2cc(S(=O)(=O)O)c3ccccc3c2O)c1

**A:**
1: 2.58 µM; 2: > 100 µM

Please give TGI for each item listed below.
1. N[C@H]1CCN(c2c(F)cc3c(=O)c(C(=O)O)cn4c3c2Oc2cc3c(ccc5ccccc53)cc2-4)C1
2. C#CCN=C(N/N=C/c1ccc([N+](=O)[O-])o1)NS(=O)(=O)c1cc(C)c(Cl)cc1SCC(N)=O
3. O=C(/C=C\c1cccc2ccccc12)c1cccs1
4. N#CC(c1ccccc1)N1CCCN(C(C#N)c2ccccc2)C1c1ccccc1O (stereo not given)
5. C=C[C@]1(C)CCC2=C(CCC3C2(C)CCC[C@]3(C)CO)C1 (stereo not given in full)

**A:**
["> 100 µM", "32.7 µM", "35.6 µM", "> 100 µM", "> 100 µM"]

Please give TGI for each item listed below.
1. Cc1c2oc3c(C)ccc(C(=O)NC4C(=O)NC(C(C)C)C(=O)N5CC(=O)CC5C(=O)N(C)CC(=O)N(C)C(C(C)C)C(=O)OC4C)c3nc-2c(C(=O)NC2C(=O)NC(C(C)C)C(=O)N3CC(=O)CC3C(=O)N(C)CC(=O)N(C)C(C(C)C)C(=O)OC2C)c(N)c1=O (stereo not given) (I: TV[X48][Sar][NMeV] / II: TV[X48][Sar][NMeV]; ester I:1-I:C, II:1-II:C; linker I:N-II:N via Actinocin(9to1); configuration not given here)
2. O=C1CC(CC(O)C(O)C(O)CO)CC(=O)N1 (stereo not given)
3. Cn1ncc2c(/N=C/c3cccs3)[nH]c(=S)nc21
4. CCc1ccc(Nc2cc(=O)[nH]c(SCc3ccccc3)n2)cc1
5. O=C(CCN1CC2CCC(CC2)C1)c1cccs1

**A:**
["> 1 µM", "> 100 µM", "27.5 µM", "> 100 µM", "> 100 µM"]
